tgt: Ca2+-saturated cTnC (Homo sapiens)
protocol-description: ITC binding to full length Ca2+-saturated cTnC
experimental-setup: means ± SEM, n = 3
assay-readout: pKd
Expect pKd as a plain number equal to -log10 of the molar concentration.

compound: N=C(N)c1ccc(-c2ccc(-c3ccc(C(=N)N)cc3)o2)cc1
recorded-measurement: 4.92

Note: attention shifts to another entry.
# compound CC(C)CCCC(C)C1CCC2C3CC(NCCCNCCCCNCCCN)C4CC(O)CCC4(C)C3CCC12C (centres unmarked) ; its pKd = 4.67

---

tgt: interaction between cTnC and switch peptide of cTnI (cTnISP) (Homo sapiens, UniProt P63316)
protocol-description: Fluorescence polarization HTS and dose-response, cTnC/FAM-cTnISP
Assay type: binding
experimental-setup: cTnISP primary screen, TOCRIScreen library, single concentration 50 μmol/L
assay-readout: FP (mP)
Reply with just the number (in mP).

Before answering, review these 10 worked examples.
compound: O=C1CCc2ccc(OCCCCN3CCN(c4cccc(Cl)c4Cl)CC3)cc2N1
endpoint-unit: mP
FP (mP): 86
--
compound: CN1CCN(CCCN2c3ccccc3Sc3ccc(Cl)cc32)CC1 [Prochlorperazine dimaleate]
endpoint-unit: mP
FP (mP): 78.2
--
compound: CS(=O)(=O)O.Cn1cc(C2=C(c3cn(CCCSC(=N)N)c4ccccc34)C(=O)NC2=O)c2ccccc21 [Ro 31-8220 mesylate]
endpoint-unit: mP
FP (mP): 57.9
--
compound: Cn1cc(-c2[nH]c3cc(NC(=O)[C@H](N)C4CCCCC4)cc4c3c2C=NNC4=O)cn1
endpoint-unit: mP
FP (mP): 64
--
compound: O=C(O)c1ccc(/C=C2\SC(=S)N(c3cccc(C(F)(F)F)c3)C2=O)cc1
endpoint-unit: mP
FP (mP): 127.9
--
compound: CN(C)CCCn1cc(C2=C(c3c[nH]c4ccccc34)C(=O)NC2=O)c2ccccc21 [GF 109203X]
endpoint-unit: mP
FP (mP): 82.4
--
compound: CS(=O)(=O)O.c1cc2c(cc1C1CCCCC1)c1c3n2CCNC3CCC1 (stereo not drawn) [Tetrindole mesylate]
endpoint-unit: mP
FP (mP): 65
--
compound: COc1ccc(CCN(C)CCCOc2ccc(S(=O)(=O)c3c(C(C)C)c4ccccc4n3C)cc2)cc1OC.O=C(O)C(=O)O [SR 33805 oxalate]
endpoint-unit: mP
FP (mP): 79
--
compound: CCCC[C@@H](C=O)NC(=O)[C@H](CC(C)C)NC(=O)OCc1ccccc1
endpoint-unit: mP
FP (mP): 121.8
--
compound: COc1cc2nc(N3CCC(N4CCCCC4)CC3)nc(NC3CCCCCC3)c2cc1OC.Cl.Cl [C 021 dihydrochloride]
endpoint-unit: mP
FP (mP): 87.1

# compound Cc1[nH]c(/C=C2\C(=O)Nc3ccc(S(=O)(=O)Cc4c(Cl)cccc4Cl)cc32)c(C)c1C(=O)N1CCC[C@@H]1CN1CCCC1 ; its FP (mP) = 76.4

# compound CCCc1cc(C)[nH]c(=O)c1CNC(=O)c1cc(-c2ccc(N3CCN(C(C)C)CC3)nc2)cc2c1cnn2C(C)C ; its FP (mP) = 80.5

# compound CCOc1cc2ncc(C#N)c(Nc3ccc(OCc4cccc(F)c4)c(Cl)c3)c2cc1NC(=O)/C=C/CN(C)C ; its FP (mP) = 73.4

# compound CCn1c(=O)c(-c2ccc(Cl)cc2Cl)cc2cnc(Nc3ccc(N4CCNCC4)c(F)c3)nc21 ; its FP (mP) = 83.2

# compound Cc1cc(N2C[C@@H](C)N[C@@H](C)C2)ncc1-c1ccc(-c2nc3c(ccn3C)c(=O)[nH]2)cc1 ; its FP (mP) = 83.4

---

tgt: interaction between cTnC and the anchoring region of cTnI (cTnIAR) (Homo sapiens, UniProt P63316)
protocol-description: Fluorescence polarization HTS, binding and dose-response, cTnC/FAM-cTnIAR
experimental-setup: cTnIAR primary screen, ENZO Screenwell library, single concentration 10 μmol/L
Counter-ions that a name gives are not always drawn.
Label true when FP (mP) is at or above 70 mP; otherwise label false.

FP (mP) >= 70 mP for [H]/N=C(\N/C(=N/[H])NCCCCCCNC(=N)NC(=N)Nc1ccc(Cl)cc1)Nc1ccc(Cl)cc1 [Chlorhexidine Dihydrochloride] ? false

FP (mP) >= 70 mP for N.N.O=C([O-])C1(C(=O)[O-])CCC1.[Pt+2] ? false

FP (mP) >= 70 mP for CC1Cc2ccccc2N1NC(=O)c1ccc(Cl)c(S(N)(=O)=O)c1 (stereo not drawn) [Indapamide] ? true

FP (mP) >= 70 mP for N.N.[Cl][Pt][Cl] [Cisplatin, Cis-Diamineplatinum(Ii) Dichloride] ? false

FP (mP) >= 70 mP for Cc1cn[nH]c1 [Fomepizole] ? true

---

tgt: interaction between cTnC and the anchoring region of cTnI (cTnIAR) (Homo sapiens, UniProt P63316)
protocol-description: Fluorescence polarization HTS, binding and dose-response, cTnC/FAM-cTnIAR
experimental-setup: cTnIAR primary screen, LOPAC 1280 library, single concentration 10 μmol/L
Label rule met when FP (mP) is at or above 70 mP; otherwise label rule not met.

compound: CN(C)c1cc2c(Nc3ccc4c(cnn4Cc4ccccc4)c3)ncnc2cn1 [GW2974]
label: rule met
//
compound: COc1ccc(-c2oc3c(CC=C(C)C)c(O)cc(O)c3c(=O)c2O)cc1 [Icaritin]
label: rule not met
//
compound: N.N.N.N.N.N.N.N.N.N.N.N.N.N.[Cl-].[Cl-].[Cl-].[Cl-].[Cl-].[Cl-].[O-2].[O-2].[Ru+3].[Ru+3].[Ru+4] [Ruthenium red]
label: rule not met
//
compound: CC(C)CCCC(C)C1CCC2C3CC(NCCCNCCCCNCCCN)C4CC(O)CCC4(C)C3CCC12C (centres unmarked) [Claramine]
label: rule not met
//
compound: C[C@]12C=CC(=O)C=C1CC[C@@H]1C2=CC[C@]2(C)[C@@H](C(=O)CN3CCN(c4cc(N5CCCC5)nc(N5CCCC5)n4)CC3)CC[C@@H]12.O=C(O)/C=C\C(=O)O [U-74389G maleate]
label: rule met
//
compound: O=C(O)c1ccc(-c2ccc(/C=C3\SC(=S)N(Cc4ccccc4)C3=O)o2)cc1 [Leukadherin-1]
label: rule met

FP (mP) >= 70 mP for Oc1c2ccccc2c2c3c(cccc13)N=N2 [SP600125] ? rule not met

---

tgt: interaction between cTnC and the anchoring region of cTnI (cTnIAR) (Homo sapiens)
protocol-description: Fluorescence polarization HTS, binding and dose-response, cTnC/FAM-cTnIAR
experimental-setup: dose-response, concentration dependent (Fig. 2c)
assay-readout: Effect on FP from the cTnC FAM-cTnIAR mixture

molecule: N=C(N)c1ccc(-c2ccc(-c3ccc(C(=N)N)cc3)o2)cc1
recorded-measurement: decreased the FP
--
molecule: O=C(O)c1cccc(-c2ccc(-c3cn(C(=O)N4CCCCC4Cc4ccccc4)nn3)cc2)c1 (stereo not shown)
recorded-measurement: decreased the FP
--
molecule: COc1ccc(-c2oc3c(CC=C(C)C)c(O)cc(O)c3c(=O)c2O)cc1
recorded-measurement: decreased the FP
--
molecule: CC(C)CCCC(C)C1CCC2C3CC(NCCCNCCCCNCCCN)C4CC(O)CCC4(C)C3CCC12C (stereo not shown)
recorded-measurement: decreased the FP

---

tgt: interaction between cTnC and switch peptide of cTnI (cTnISP) (Homo sapiens, UniProt P63316)
protocol-description: Fluorescence polarization HTS and dose-response, cTnC/FAM-cTnISP
Format: binding
experimental-setup: cTnISP primary screen, LOPAC 1280 library, single concentration 50 μmol/L
Where a name gives a salt, the structure may show the parent alone.
assay-readout: FP (mP)
Reply with just the number (in mP).

Before answering, review these 5 worked examples.
compound: O=C1NCN(c2ccccc2)C12CCN(CCCC(c1ccc(F)cc1)c1ccc(F)cc1)CC2
endpoint-unit: mP
FP (mP): 88.6
//
compound: Cc1c2ccncc2c(C)c2c1[nH]c1ccccc12
endpoint-unit: mP
FP (mP): 86.1
//
compound: c1ccc2cc(-c3ncc[nH]3)ccc2c1 [Benazoline oxalate]
endpoint-unit: mP
FP (mP): 83.7
//
compound: CCC(=O)Nc1cccc(Oc2nc(Nc3ccc(N4CCN(C)CC4)cc3OC)ncc2Cl)c1
endpoint-unit: mP
FP (mP): 86.4
//
compound: N.N.N.N.N.N.N.N.N.N.N.N.N.N.[Cl-].[Cl-].[Cl-].[Cl-].[Cl-].[Cl-].[O-2].[O-2].[Ru+3].[Ru+3].[Ru+4]
endpoint-unit: mP
FP (mP): 83.7

Note: attention shifts to another entry.
# compound CC(C)[C@H]1c2ccc(F)cc2CC[C@@]1(CCN(C)CCCc1nc2ccccc2[nH]1)OC(=O)C1CC1 ; its FP (mP) = 88.7

---

tgt: interaction between cTnC and switch peptide of cTnI (cTnISP) (Homo sapiens)
protocol-description: Fluorescence polarization HTS and dose-response, cTnC/FAM-cTnISP
Assay type: binding
experimental-setup: cTnISP primary screen, LOPAC 1280 library, single concentration 50 μmol/L
Counter-ions that a name gives are not always drawn.
assay-readout: FP (mP)
Reply with just the number (in mP).

FP (mP) for interaction between cTnC and switch peptide of cTnI (cTnISP) (Homo sapiens) with input N=C(N)c1ccc(-c2ccc(-c3ccc(C(=N)N)cc3)o2)cc1 equals 91.8

FP (mP) for interaction between cTnC and switch peptide of cTnI (cTnISP) (Homo sapiens) with input O=C(c1ccc(OCCN2CCCCC2)cc1)c1c(-c2ccc(O)cc2)sc2cc(O)ccc12 [Raloxifene.HCl] equals 85.5

FP (mP) for interaction between cTnC and switch peptide of cTnI (cTnISP) (Homo sapiens) with input [H]/N=C(/NCCCCC)N/N=C/c1c[nH]c2ccc(OC)cc12 [Tegaserod maleate] equals 78.4

FP (mP) for interaction between cTnC and switch peptide of cTnI (cTnISP) (Homo sapiens) with input O=C(O)C(O)C(O)C(=O)O.Oc1ccc2c(c1)CC[C@H](c1ccccc1)[C@@H]2c1ccc(OCCN2CCCC2)cc1 [Lasofoxifene tartrate] equals 86.8

FP (mP) for interaction between cTnC and switch peptide of cTnI (cTnISP) (Homo sapiens) with input CC(C)c1cccc(C(C)C)c1N1C(=O)c2ccc(O)cc2C1=O equals 112

FP (mP) for interaction between cTnC and switch peptide of cTnI (cTnISP) (Homo sapiens) with input O=C(c1ccc(Nc2nccc(-c3cc4ccccc4s3)n2)cc1)N1CCC(N2CCCC2)CC1 [IKK-16 dihydrochloride] equals 84.3

FP (mP) for interaction between cTnC and switch peptide of cTnI (cTnISP) (Homo sapiens) with input NCCOc1cc(C(=O)Nc2cc(OCCN)c3ccccc3n2)nc(C(=O)Nc2cc(OCCN)c3ccccc3n2)c1 [Pyridostatin trifluoroacetate salt] equals 85.6
